System: Cunninghamella elegans bio-110930
Measurement Notes: Microbial transformation of euphorbiasteroid, metabolite detection
Test Conditions: C. elegans bio-110930 culture with euphorbiasteroid
Endpoint Label: Distribution Fungi (metabolite detected)

| Molecule | Value |
| --- | --- |
| CC(=O)OC1C2C(OC(=O)Cc3ccccc3)C(C)CC2(OC(C)=O)C(=O)C(C)=CC2C(CCC13CO3)C2(C)C(=O)O (stereo not drawn) | √ |
| CC(=O)OC1C2C(OC(=O)Cc3ccccc3)C(C=O)CC2(OC(C)=O)C(=O)C(C)=CC2C(CCC13CO3)C2(C)C (stereo not drawn) | √ |
| CC(=O)OC1C2C(OC(=O)Cc3ccccc3O)C(C)CC2(OC(C)=O)C(=O)C(C)=CC2C(CCC13CO3)C2(C)CO (stereo not drawn) [Compound M8, 18α,2′-dihydroxyl euphorbiasteroid] | √ |

---

Test system: Cunninghamella elegans bio-110930
Measurement Notes: Microbial transformation of euphorbiasteroid, metabolite detection
Test Conditions: C. elegans bio-110930 culture with euphorbiasteroid

| Compound | Distribution Fungi (metabolite detected) |
| --- | --- |
| CC(=O)OC1C2C(OC(=O)Cc3ccccc3)C(C)CC2(OC(C)=O)C(=O)C(CO)=CC2C(CCC13CO3)C2(C)C (stereo not drawn) [Compound M3, 20-hydroxyl euphorbiasteroid] | √ |
| CC(=O)OC1C2C(OC(=O)C(O)c3ccccc3)C(C)CC2(OC(C)=O)C(=O)C(C)=CC2C(CCC13CO3)C2(C)C (stereo not drawn) [Compound M4, 7′-hydroxyl euphorbiasteroid] | √ |
| CC(=O)OC1C2C(OC(=O)Cc3ccccc3)C(C(=O)O)CC2(OC(C)=O)C(=O)C(C)=CC2C(CCC13CO3)C2(C)C (stereo not drawn) | √ |

---

System: Cunninghamella elegans bio-110930
Measurement Notes: Microbial transformation of euphorbiasteroid, metabolite detection
Test Conditions: C. elegans bio-110930 culture with euphorbiasteroid
Endpoint Label: Distribution Fungi (metabolite detected)

The examples below pair each entry with its known result.
| Molecule | Value |
| --- | --- |
| CC(=O)OC1C2C(OC(=O)CC3=CC(O)C(O)C=C3)C(C)CC2(OC(C)=O)C(=O)C(C)=CC2C(CCC13CO3)C2(C)C (centres unmarked) [Compound M13, 3′,4′-dihydroxyl dihydroeuphorbiasteroid] | √ |
| CC(=O)OC1C2C(OC(=O)CC3=CC=CC(O)C3O)C(C)CC2(OC(C)=O)C(=O)C(C)=CC2C(CCC13CO3)C2(C)C (centres unmarked) [Compound M12, 5′,6′-dihydroxyl dihydroeuphorbiasteroid] | √ |
| CC(=O)OC1C2C(OC(=O)Cc3ccccc3O)C(C)CC2(OC(C)=O)C(=O)C(C)=CC2C(CCC13CO3)C2(C)C (centres unmarked) [Compound M5, 2′-hydroxyl euphorbiasteroid] | √ |
| CC(=O)OC1C2C(OC(=O)Cc3ccccc3)C(C)CC2(OC(C)=O)C(=O)C(C)=CC2C(CCC13CO3)C2(C)CO (stereo not drawn) [Compound M1, 18α-hydroxyl euphorbiasteroid] | √ |

input: Name the recorded Distribution Fungi (metabolite detected) of the item CC(=O)OC1C2C(OC(=O)Cc3ccc(O)cc3)C(C)CC2(OC(C)=O)C(=O)C(C)=CC2C(CCC13CO3)C2(C)C (centres unmarked) [Compound M2, 4′-hydroxyl euphorbiasteroid] in your answer.
output: √

---

Test system: human cell lines SH-SY5Y, LO2, AC-16, and HK-2
Measurement Notes: CCK-8 cytotoxicity, summary over four human cell lines
Type: cell-based
Test Conditions: span over SH-SY5Y, LO2, AC-16, HK-2 (and over the named metabolites), read-out: IC50 values against four human cell lines
pIC50: −log10 of the molar value.
Endpoint Label: pIC50

input: Name the recorded pIC50 of the item CC1=CC2C(CCC3(CO3)C(O)C3C(O)C(C)CC3(O)C1=O)C2(C)C (stereo not shown) [Compound M24, epoxylathyrol] in your answer.
output: 4.39 to 5.44

---

Measurement Notes: Metabolite detection in rats (plasma, urine, feces) after oral euphorbiasteroid by UPLC-Q/TOF-MS
Assay type: in vivo, Sprague-Dawley rats
Test Conditions: rat plasma, single oral dose 100 mg/kg euphorbiasteroid
Endpoint Label: Distribution Rat Plasma (metabolite detected)

| Molecule | Value |
| --- | --- |
| CC(=O)OC1C2C(OC(=O)Cc3ccccc3O)C(C)CC2(OC(C)=O)C(=O)C(C)=CC2C(CCC13CO3)C2(C)C (stereo not drawn) [Compound M5, 2′-hydroxyl euphorbiasteroid] | √ |
| CC(=O)OC1C2C(OC(=O)Cc3ccccc3)C(C)CC2(OC(C)=O)C(=O)C(C)=CC2C(CCC13CO3)C2(C)CO (stereo not drawn) [Compound M1, 18α-hydroxyl euphorbiasteroid] | √ |
| CC(=O)OC1C2C(OC(=O)CC3=CC(O)C(O)C=C3)C(C)CC2(OC(C)=O)C(=O)C(C)=CC2C(CCC13CO3)C2(C)C (stereo not drawn) [Compound M13, 3′,4′-dihydroxyl dihydroeuphorbiasteroid] | √ |

---

Tested on: SH-SY5Y neuroblastoma cells
Measurement Notes: CCK-8 cell cytotoxicity assay, SH-SY5Y
Type: cell-based
Test Conditions: Homo sapiens, CCK-8, 72 h treatment, read-out: IC50 (μM) SH-SY5Y
Endpoint Label: IC50 (µM)
Quick note: give the figure in µM, leave out the unit.

input: Name the recorded IC50 of the item CC1=CC2C(CCC3(CO3)C(O)C3C(O)C(C)CC3(O)C1=O)C2(C)C (stereo not shown) in your answer.
output: 40.7
